measured_metric: melting point

smiles_input=O=S(=O)(c1ccccc1)c1nn(-c2cccc(C(F)(F)F)c2)c2ccc(N3CCNCC3)cc12 result="139 to 142 °C"
smiles_input=O=S(=O)(c1ccccc1)c1nn(-c2ccc(F)c(Cl)c2)c2ccc(N3CCNCC3)cc12 result="> 200 °C"
smiles_input=CN1CCN(c2ccc3[nH]nc(S(=O)(=O)c4ccccc4F)c3c2)CC1 result="160 to 161 °C"
smiles_input=CN1CCN(c2ccc3[nH]nc(S(=O)(=O)c4ccc(Br)cc4)c3c2)CC1 result="> 250 °C"
smiles_input=CN1CCN(c2ccc3[nH]nc(S(=O)(=O)c4ccc(Cl)s4)c3c2)CC1 result="> 250 °C"
smiles_input=O=S(=O)(c1ccccc1)c1nn(-c2ccc(C(F)(F)F)cc2)c2ccc(N3CCNCC3)cc12 result="170 to 172 °C"
smiles_input=O=S(=O)(c1ccccc1)c1nn(CCc2ccccc2)c2ccc(N3CCNCC3)cc12 result="127 to 130 °C"
smiles_input=O=S(=O)(c1ccccc1)c1nn(-c2ccc(F)cc2)c2ccc(N3CCNCC3)cc12 result="159 to 161 °C"
smiles_input=CCn1nc(S(=O)(=O)c2ccccc2)c2cc(N3CCNCC3)ccc21 result="> 200 °C"
smiles_input=O=S(=O)(c1ccccc1)c1nn(-c2cccc(C(F)(F)F)c2)c2ccc(N3CCN(Cc4ccccc4)CC3)cc12 result="146 to 150 °C"
smiles_input=O=S(=O)(c1ccccc1)c1nn(-c2ccc(I)cc2)c2ccc(N3CCNCC3)cc12 result="> 200 °C"

---

# system: human cloned 5-HT6 receptors (Homo sapiens)
# Construct: expressed in transfected cells; host or cells: HeLa cells (membrane preparation)
# Sequence (P50406 whole entry): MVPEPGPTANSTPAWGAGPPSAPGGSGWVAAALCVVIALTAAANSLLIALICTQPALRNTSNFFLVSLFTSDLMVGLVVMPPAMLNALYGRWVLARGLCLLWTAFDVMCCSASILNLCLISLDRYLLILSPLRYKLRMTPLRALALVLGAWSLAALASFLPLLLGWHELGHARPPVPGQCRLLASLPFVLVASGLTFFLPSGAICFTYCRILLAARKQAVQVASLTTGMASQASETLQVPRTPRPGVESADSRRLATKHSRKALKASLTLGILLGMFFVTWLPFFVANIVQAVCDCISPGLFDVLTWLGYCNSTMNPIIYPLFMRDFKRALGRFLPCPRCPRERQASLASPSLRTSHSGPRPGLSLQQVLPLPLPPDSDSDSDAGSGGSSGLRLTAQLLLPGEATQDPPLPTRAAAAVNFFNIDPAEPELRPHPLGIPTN
# assay_details: 5-HT6 binding affinity, [3H]-LSD displacement on membranes of Hela cells expressing human cloned 5-HT6 receptors
# setup_conditions: [3H]-LSD 3.0 nM, Hela cell membranes, 120 min at room temperature; read-out: 5-HT6 Binding Ki
# Method: The affinity of test compounds for the serotonin 5-HT6 receptor is evaluated in the following manner. […] The final pellet is suspended in a small volume of Tris.HCl buffer and the tissue protein content is determined in aliquots of 10-25 μl volumes. […] Binding in the presence of varying concentrations of test compound is expressed as a percentage of specific binding in the absence of test compound. […]
pKi: −log10 of the molar value. Where a name gives a salt, the structure may show the parent alone.
Collected pKi values appear next to each entry.
measured_metric: pKi

compound=O=S(=O)(c1ccccc1)c1nn(-c2ccc(F)c(Cl)c2)c2ccc(N3CCNCC3)cc12 measured_metric=pKi readout_number=7.14
compound=CN1CCN(c2ccc3[nH]nc(S(=O)(=O)c4c(Cl)cccc4Cl)c3c2)CC1 measured_metric=pKi readout_number=8.22
compound=O=S(=O)(c1ccccc1)c1nn(-c2ccc(F)cc2)c2ccc(N3CCNCC3)cc12 measured_metric=pKi readout_number=8.40
compound=CCn1nc(S(=O)(=O)c2ccccc2)c2cc(N3CCNCC3)ccc21 measured_metric=pKi readout_number=8.52
compound=CN1CCN(c2cc(Cl)cc3c(S(=O)(=O)c4cccc(C(F)(F)F)c4)n[nH]c23)CC1 measured_metric=pKi readout_number=7.70
compound="COc1cc2c(cc1N1CCN(Cc3ccccc3)CC1)c(S(=O)(=O)c1ccccc1)nn2-c1ccccc1 [Example 8, hydrochloride]" measured_metric=pKi readout_number=6.40
compound="O=S(=O)(c1ccccc1)c1n[nH]c2ccc(N3CCN(Cc4ccccc4)CC3)cc12 [Example 4, hydrochloride]" measured_metric=pKi readout_number=7.07
compound=CN1CCN(c2ccc3c(c2)c(S(=O)(=O)c2cccc4ccccc24)nn3Cc2cccc(Cl)c2)CC1 measured_metric=pKi readout_number=8.22
compound=O=S(=O)(c1ccccc1)c1nn(-c2cccc(C(F)(F)F)c2)c2ccc(N3CCNCC3)cc12 measured_metric=pKi readout_number=7.21
compound=CC(C)c1ccc(S(=O)(=O)c2n[nH]c3ccc(N4CCN(C)CC4)cc23)cc1 measured_metric=pKi readout_number=8.40
compound=CC(C)Cn1nc(S(=O)(=O)c2cccc3ccccc23)c2cc(N3CCN(C)CC3)ccc21 measured_metric=pKi readout_number=9.00
compound=O=S(=O)(c1ccccc1)c1nn(-c2ccc(I)cc2)c2ccc(N3CCNCC3)cc12 measured_metric=pKi readout_number=6.93
compound=CN1CCN(c2cccc3c(S(=O)(=O)c4cccc5ccccc45)n[nH]c23)CC1 measured_metric=pKi readout_number=8.30
compound=CN1CCN(c2ccc3c(c2)c(S(=O)(=O)c2cccc4ccccc24)nn3C)CC1 measured_metric=pKi readout_number=8.70
compound=CN1CCN(c2ccc3[nH]nc(S(=O)(=O)c4ccccc4Cl)c3c2)CC1 measured_metric=pKi readout_number=8.40
compound=O=S(=O)(c1cccc2ccccc12)c1n[nH]c2ccc(N3CCNCC3)cc12 measured_metric=pKi readout_number=9.00

---

# system: human cloned 5-HT6 receptors (Homo sapiens)
# Construct: expressed in transfected cells; host or cells: HeLa cells (membrane preparation)
# assay_details: 5-HT6 binding affinity, [3H]-LSD displacement on membranes of Hela cells expressing human cloned 5-HT6 receptors
# setup_conditions: [3H]-LSD 3.0 nM, Hela cell membranes, 120 min at room temperature; read-out: 5-HT6 Binding Ki
Counter-ions that a name gives are not always drawn.
measured_metric: Ki (nM)

compound=Cc1ccc(S(=O)(=O)c2n[nH]c3ccc(N4CCN(C)CC4)cc23)cc1 system="human cloned 5-HT6 receptors (Homo sapiens)" readout_number=5
compound=CN1CCN(c2ccc3[nH]nc(S(=O)(=O)c4cccc5ccccc45)c3c2)CC1 system="human cloned 5-HT6 receptors (Homo sapiens)" readout_number=1
compound=COc1ccc(S(=O)(=O)c2n[nH]c3ccc(N4CCN(C)CC4)cc23)cc1 system="human cloned 5-HT6 receptors (Homo sapiens)" readout_number=12
compound="CCn1nc(S(=O)(=O)c2ccccc2)c2cc(N3CCN(Cc4ccccc4)CC3)ccc21 [Example 12, dihydrochloride]" system="human cloned 5-HT6 receptors (Homo sapiens)" readout_number=64
compound=CCCn1nc(S(=O)(=O)c2cccc3ccccc23)c2cc(N3CCN(C)CC3)ccc21 system="human cloned 5-HT6 receptors (Homo sapiens)" readout_number=2

The measurements presented in this section are drawn from patent US7560470B2.
